Source of measurements: the supplement of paper PMC11451515

# System: P12-Ichikawa
# experiment_notes: cell viability relative to DMSO control; higher = less cytotoxic
# reported_conditions: RPMI 5 mM glucose + 10% FBS; 48 h; 46.1 µM
metric: cell viability (%)

1. CC(C)N(C[C@H]1O[C@@H](n2cnc3c(N)ncnc32)[C@H](O)[C@@H]1O)[C@H]1C[C@@H](CCc2nc3cc(C(C)(C)C)ccc3[nH]2)C1 : 1.91
2. CN(C)C1=CC(=CC=C1)C\2=C\3C(=O)N(NC3=C/C(=O)N2C)C4=CC=CC=C4Cl : 15.8
3. Cc1ccc(C(=O)Nc2cccc(C(F)(F)F)c2)cc1-c1ccc2nc(NCCN3CCOCC3)ncc2c1 : 31.7
4. CCc1cc(C(N)=S)ccn1 : 104
5. O=C(CCCCCCC(=O)Nc1ccc([C@H]2O[C@@H](CSc3nc(-c4ccccc4)c(-c4ccccc4)o3)C[C@@H](c3ccc(CO)cc3)O2)cc1)NO : 3.26
6. CCC(C)N1\N=C/N(C1=O)C2=CC=C(C=C2)N3CCN(CC3)C4=CC=C(OC[C@H]5CO[C@@](C[N]6C=NC=N6)(O5)C7=CC=C(Cl)C=C7Cl)C=C4 (some centres not stated) : 97.2
7. OC1=CC=C(C=C1)\C2=C\OC3=C(C(=CC(=C3)O)O)C2=O : 85.9
8. Cc1cc(OCCC[S+](C)(=O)[O-])cc(C)c1-c1cccc(COc2ccc3c(c2)OC[C@H]3CC(=O)O)c1 : 49.3
9. O=C(Nc1nnc(-c2ccco2)o1)c1cc(-c2ccccc2)nc2ccccc12 : 6.52
10. COc1cc([C@@H](CC(=O)O)c2ccc(C)c(CN3C[C@@H](C)Oc4ccccc4[S+]3(=O)[O-])c2)cc2nnn(C)c12 : 67.4
11. NC[C@@H]1O[C@H](O[C@H]2[C@@H](O)[C@H](O[C@@H]3[C@@H](O)[C@H](N)C[C@H](N)[C@H]3O[C@H]3O[C@H](CN)[C@@H](O)[C@H](O)[C@H]3N)O[C@@H]2CO)[C@H](N)[C@@H](O)[C@@H]1O.O=S(=O)(O)O.O=S(=O)(O)O.O=S(=O)(O)O : 96
12. CN(C)c1ccc2nc3ccc(N(C)C)cc3[s+]c2c1 : 2.12
13. N[C@H]2CN(CC12CC1)c3c(F)cc4c(c3Cl)[N@@](C=C(C4=O)C(=O)O)C5C[C@H]5F (some centres not stated) : 86.1
14. COc1cccc2c1C(=O)c1c(O)c3c(c(O)c1C2=O)C[C@@](O)(C(=O)CO)C[C@@H]3O[C@H]1C[C@H](N)[C@H](O[C@H]2CCCCO2)[C@H](C)O1 : 94.6
15. CCN1C[C@H](C)[N]2C(=C(O)C3=C2\C(=N/N(CC4=CC=C(F)C(=C4)Cl)C3=O)C(=O)NC)C1=O : 94.7
16. N[S+](=O)([O-])c1cc2c(cc1Cl)NC(C(Cl)Cl)N[S+]2(=O)[O-] (configuration not stated) : 128
17. O=C1CCC[C@@H]2[C@H]3CCCN4CCC[C@@H](CN12)[C@@H]34 : 75.7
18. C=C1C(=O)OC(CCCCCCCC)C1C(=O)O (configuration not stated) : 128
19. CCN(CCO)CCCOc1ccc2c(Nc3cc(CC(=O)Nc4cccc(F)c4)[nH]n3)ncnc2c1 : 16.3
20. O=C(O)CCCCC(CCSCc1ccccc1)SCc1ccccc1 (configuration not stated) : 58.4
21. N\C1=N\C2=C(N=C[N]2COCCO)C(=O)N1 : 84.6
22. CCc1cc2c(cc1N1CCC(N3CCOCC3)CC1)C(C)(C)c1[nH]c3cc(C#N)ccc3c1C2=O : 102
23. COC(=O)Nc1nc2cc(C(=O)c3ccc(F)cc3)ccc2[nH]1 : 50
24. C[C@H]1C[C@H]2[C@@H]3CC[C@](O)(C(=O)CO)[C@@]3(C)C[C@H](O)[C@@H]2[C@@]\4(C)/C=C\C(=O)\C=C14 : 45
25. O=C(NCCCCN1CCOCC1)c1cc2ccccc2o1 : 101
26. CCOC(=O)N1c2ccc(C(F)(F)F)cc2[C@@H](N(Cc2cc(C(F)(F)F)cc(C(F)(F)F)c2)C(=O)OC)C[C@H]1CC : 111
27. O=C(Nc1c[nH]nc1-c1nc2cc(CN3CCOCC3)ccc2[nH]1)NC1CC1 : 14.1
